assay: Cmax in nude CD-1 mouse at 5 mg/kg, iv by UPLC analysis; format: ADME, organism-based; design: dose 5 mg/kg, route intravenous; details: in vivo
endpoint_label: Cmax (ng/mL)
Give bare numbers, in ng/mL.

Quickly give me recorded Cmax for COc1cc(Sc2c(-c3cc[nH]c3)[nH]c3ccccc23)cc(OC)c1OC
35.7

----------
experiment: AUC ( 0 to infinity) in nude CD-1 mouse at 15 mg/kg, po by UPLC analysis; format: ADME, organism-based; design: time infinity, dose 15 mg/kg, route oral; conditions: plasma
endpoint_label: AUC(0-inf) (ng·h/mL)
Numbers only, in ng·h/mL.

State its AUC(0-inf) for this compound: COc1cc(Sc2c(-c3cc[nH]c3)[nH]c3ccccc23)cc(OC)c1OC
9720

----------
tested on: A10; experiment: Growth inhibition of rat A10 cells after 48 hrs by MTT assay; format: cell-based; conditions: A10, 48 h
endpoint_label: pIC50
One number for each entry, as −log10 of the molar value.

Give pIC50 only, for COc1ccc(/C=C\c2cc(OC)c(OC)c(OC)c2)cc1O , using A10 data.
9.00

----------
test: AUC ( 0 to infinity) in nude CD-1 mouse at 5 mg/kg, iv by UPLC analysis; type: ADME, organism-based; parameters: time infinity, dose 5 mg/kg, route intravenous; details: plasma
endpoint_label: AUC(0-inf) (ng·h/mL)
One number for each entry, in ng·h/mL.

Identify AUC(0-inf) associated with the compound COc1cc(Sc2c(-c3cc[nH]c3)[nH]c3ccccc23)cc(OC)c1OC
2910
